Kindly state IC50 for each of the entries shown.
- SYSTEM: UniProt:P23458
- Sequence (P23458 875-1153): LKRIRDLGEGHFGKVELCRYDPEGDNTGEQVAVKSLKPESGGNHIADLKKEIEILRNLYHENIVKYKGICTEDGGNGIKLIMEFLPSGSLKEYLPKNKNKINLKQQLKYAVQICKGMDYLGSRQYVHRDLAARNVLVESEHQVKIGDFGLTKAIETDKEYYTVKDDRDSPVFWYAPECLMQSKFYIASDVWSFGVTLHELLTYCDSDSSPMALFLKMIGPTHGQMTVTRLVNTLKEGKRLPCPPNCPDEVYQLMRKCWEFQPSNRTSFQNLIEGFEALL
- PROTOCOL DESCRIPTION: Jak biochemical HTRF assay, JAK1
- REPORTED CONDITIONS: recombinant purified GST-tagged catalytic domain; HTRF format; [ATP] 31.8 μM
Hi, when you answer, please include the unit after the number. Thanks!

Examples with their reported IC50 follow.
{"MOLECULE": "CC(C)(C)OC(=O)N1CC[C@H](C#N)C(n2cc(C(N)=O)c(Nc3ccccc3)n2)C1 (mixture of isomers) [Example 1-3]", "MEASURED QUANTITY": "IC50", "OBSERVED RESULT": "0.005 µM"}
{"MOLECULE": "CC1(c2ccc(Nc3nn([C@H]4COCC[C@@H]4C#N)cc3C(N)=O)cc2)COC1 (single isomer, unassigned) [Example 9-24]", "MEASURED QUANTITY": "IC50", "OBSERVED RESULT": "0.0001 µM"}
{"MOLECULE": "COCCOC(=O)N1CC[C@H](n2cc(C(N)=O)c(Nc3ccc(F)cc3)n2)[C@H](C#N)C1 (racemic) [Example 5-54]", "MEASURED QUANTITY": "IC50", "OBSERVED RESULT": "0.529 µM"}

Record summary for N#C[C@@H]1CN(CCC2CCOCC2)CC[C@H]1n1cc(C(N)=O)c(Nc2ccc(F)cc2)n1 (racemic) [Example 6-31] : reported IC50 = 0.023 µM

----------
- SYSTEM: UniProt:P23458
- PROTOCOL DESCRIPTION: Jak biochemical HTRF assay, JAK1
- REPORTED CONDITIONS: recombinant purified GST-tagged catalytic domain; HTRF format; [ATP] 31.8 μM
MEASURED QUANTITY: pIC50
One number for each entry, as −log10 of the molar value.

// below: answered compounds
{"COMPOUND": "N#C[C@@H]1CCN(Cc2cocn2)C[C@H]1n1cc(C(N)=O)c(Nc2ccc(F)cc2)n1 (racemic) [Example 6-4]", "OBSERVED RESULT": 8.70}
{"COMPOUND": "CC(C)(COC(=O)N1CC[C@@H](C#N)[C@H](n2cc(C(N)=O)c(Nc3ccc(F)cc3)n2)C1)n1cccn1 (mixture of isomers) [Example 5-92]", "OBSERVED RESULT": 7.57}
{"COMPOUND": "N#C[C@@H]1CN(C(=O)OCC(F)F)CC[C@H]1n1cc(C(N)=O)c(Nc2ccc(F)cc2)n1 (racemic) [Example 5-16]", "OBSERVED RESULT": 8.10}
{"COMPOUND": "N#C[C@@H]1CN(Cc2cccc(F)n2)CC[C@H]1n1cc(C(N)=O)c(Nc2ccc(F)cc2)n1 (racemic) [Example 6-36]", "OBSERVED RESULT": 8.70}
{"COMPOUND": "N#C[C@@H]1CN(C(=O)OC(CF)CF)CC[C@H]1n1cc(C(N)=O)c(Nc2ccc(F)cc2)n1 (racemic) [Example 5-31]", "OBSERVED RESULT": 8.22}
{"COMPOUND": "N#C[C@@H]1CCN(CC2CCOC2)C[C@H]1n1cc(C(N)=O)c(Nc2ccc(F)cc2)n1 (mixture of isomers) [Example 6-21]", "OBSERVED RESULT": 8.22}

pIC50 recorded for this compound, N#C[C@@H]1CN(Cc2cocn2)CC[C@H]1n1cc(C(N)=O)c(Nc2ccc(F)cc2)n1 (racemic) [Example 6-25] , is 8.22
